Values compiled from ChEMBL document CHEMBL5634153.

- Target Or System: Muscarinic acetylcholine receptor M4 (Homo sapiens, UniProt P08173)
- Sequence (P08173 whole entry): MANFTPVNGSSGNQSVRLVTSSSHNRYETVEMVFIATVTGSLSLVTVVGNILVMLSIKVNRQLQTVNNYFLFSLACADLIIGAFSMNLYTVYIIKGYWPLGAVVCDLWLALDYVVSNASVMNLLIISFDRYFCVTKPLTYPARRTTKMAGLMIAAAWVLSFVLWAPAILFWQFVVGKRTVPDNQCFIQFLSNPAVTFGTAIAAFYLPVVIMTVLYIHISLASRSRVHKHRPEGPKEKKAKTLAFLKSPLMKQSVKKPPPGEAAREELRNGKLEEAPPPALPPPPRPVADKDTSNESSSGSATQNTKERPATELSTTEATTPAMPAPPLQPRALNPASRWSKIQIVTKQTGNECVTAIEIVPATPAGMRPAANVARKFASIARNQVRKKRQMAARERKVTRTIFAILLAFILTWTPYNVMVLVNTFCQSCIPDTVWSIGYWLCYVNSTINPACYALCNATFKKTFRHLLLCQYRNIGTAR
Please assign NO whenever Ki is at or above 60 nM, and YES whenever it is below.

Consider the following illustrative entries.
CN1[C@@H]2CC[C@H]1C[C@H](Oc1nc3ccccc3n1-c1ccccc1)C2 :: YES
CN1CCC(Oc2nc3ccccc3n2-c2ccccc2)C1 (racemic) :: NO

API: the following record is the query input.
**Query** Threshold test, Ki < 60 nM: "CN1[C@@H]2C[C@@H](Oc3nc4ccccc4n3-c3ccccc3)C[C@H]1[C@@H]1O[C@@H]12"
**Result** NO

====

- Experiment: Lipophilicity, log P of compound at pH 7.4 by HPLC analysis
- Type: physicochemical
- Assay Context: buffer
Measure: logP
Give the figure by itself; no unit, no explanation.

Answered cases to consult:
CN1CC(Oc2nc3ccccc3n2-c2ccccc2)C1 :: 2.6
CN1[C@@H]2CC[C@H]1C[C@H](Oc1nc3ccccc3n1-c1ccccc1)C2 :: 3.05
CN1[C@@H]2C[C@@H]3C[C@H]1C(O3)C2OC(=O)N(c1ccccc1)c1ccccc1 (stereo not given in full) :: 1.58

So, "CN1[C@@H]2C[C@@H](Oc3nc4ccccc4n3-c3ccccc3)C[C@H]1[C@@H]1O[C@@H]12" ? Its logP was 3.04

So, CN1CCCC(OC(=O)N(c2ccccc2)c2ccccc2)C1 (stereo not given) ? Its logP was 2.69

So, CN1CCC(Oc2nc3ccccc3n2-c2ccccc2)C1 (racemic) ? Its logP was 2.81

So, "CN1CCC(Oc2nc3ccccc3n2-c2ccccc2)CC1" ? Its logP was 2.94

So, CN1CCCC(Oc2nc3ccccc3n2-c2ccccc2)C1 (racemic) ? Its logP was 3.2

So, "CN1CC(OC(=O)N(c2ccccc2)c2ccccc2)C1" ? Its logP was 1.82

So, "CN1[C@@H]2CC[C@H]1C[C@@H](Oc1nc3ccccc3n1-c1ccccc1)C2" ? Its logP was 2.73
